# IC50 per record follows
Biological target: Glucocorticoid receptor (Homo sapiens, UniProt P04150)
Sequence (P04150 whole entry, looked up): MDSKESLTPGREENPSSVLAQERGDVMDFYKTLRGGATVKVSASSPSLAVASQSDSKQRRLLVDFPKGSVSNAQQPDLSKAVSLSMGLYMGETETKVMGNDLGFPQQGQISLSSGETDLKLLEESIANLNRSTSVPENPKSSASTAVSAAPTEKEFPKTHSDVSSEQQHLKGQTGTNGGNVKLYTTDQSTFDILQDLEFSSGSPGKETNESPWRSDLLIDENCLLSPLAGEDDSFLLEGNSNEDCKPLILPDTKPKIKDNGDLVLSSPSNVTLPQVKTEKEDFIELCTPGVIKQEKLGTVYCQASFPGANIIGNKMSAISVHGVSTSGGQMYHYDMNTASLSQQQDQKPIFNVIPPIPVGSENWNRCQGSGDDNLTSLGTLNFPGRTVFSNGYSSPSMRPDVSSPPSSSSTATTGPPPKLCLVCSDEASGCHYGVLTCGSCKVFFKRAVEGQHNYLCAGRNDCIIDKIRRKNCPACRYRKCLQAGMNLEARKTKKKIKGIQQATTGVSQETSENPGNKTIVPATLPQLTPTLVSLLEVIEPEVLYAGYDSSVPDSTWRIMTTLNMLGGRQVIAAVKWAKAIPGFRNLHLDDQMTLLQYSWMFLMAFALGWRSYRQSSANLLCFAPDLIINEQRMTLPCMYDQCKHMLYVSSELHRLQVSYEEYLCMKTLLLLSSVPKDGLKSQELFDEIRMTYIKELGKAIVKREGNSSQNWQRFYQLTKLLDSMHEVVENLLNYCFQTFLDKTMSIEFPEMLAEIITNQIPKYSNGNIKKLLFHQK
TEST_READOUT: IC50

1. Cc1nn(CC(F)(F)CCO)c(-c2ccc(F)cc2)c1-c1ccc2c(c1)NC(=O)CO2	1300 nM
2. Cc1nn(CCC(C)(F)F)c(-c2ccc(F)cc2)c1-c1ccc2c(c1)NC(=O)CO2	370 nM
3. Cc1nn(CCC(F)(F)CO)c(-c2ccc(F)cc2)c1-c1ccc2c(c1)NC(=O)CO2	2500 nM
4. CCCCn1nc(C)c(-c2ccc3c(c2)NC(=O)CO3)c1-c1ccc(F)cc1	1400 nM
5. CCCn1nc(C)c(-c2ccc3c(c2)NC(=O)CO3)c1-c1ccc(F)cc1	1600 nM
6. Cc1nn(CC(F)(F)CO)c(-c2ccc(F)cc2)c1-c1ccc2c(c1)NC(=O)CO2	2400 nM
7. Cc1nn(CCCCO)c(-c2ccc(F)cc2)c1-c1ccc2c(c1)NC(=O)CO2	5400 nM
8. Cc1nn(CCCC(F)(F)F)c(-c2ccc(F)cc2)c1-c1ccc2c(c1)NC(=O)CO2	1100 nM
9. Cc1nn(Cc2cccnc2)c(-c2ccc(F)cc2)c1-c1ccc2c(c1)NC(=O)CO2	1700 nM
10. Cc1nn(CCC#N)c(-c2ccc(F)cc2)c1-c1ccc2c(c1)NC(=O)CO2	4600 nM
11. Cc1[nH]nc(-c2ccc3c(c2)NC(=O)CO3)c1-c1ccc(F)cc1	> 10000 nM
